target: Neuronal acetylcholine receptor; alpha4/beta2 (Rattus norvegicus, UniProt P09483+P12390); test: Displacement of (+/-)-[3H]epibatidine from alpha4beta2 nicotinic acetylcholine receptor in rat brain cortex membrane homogenates; assay type: cell membranes
Sequence (P09483 whole entry): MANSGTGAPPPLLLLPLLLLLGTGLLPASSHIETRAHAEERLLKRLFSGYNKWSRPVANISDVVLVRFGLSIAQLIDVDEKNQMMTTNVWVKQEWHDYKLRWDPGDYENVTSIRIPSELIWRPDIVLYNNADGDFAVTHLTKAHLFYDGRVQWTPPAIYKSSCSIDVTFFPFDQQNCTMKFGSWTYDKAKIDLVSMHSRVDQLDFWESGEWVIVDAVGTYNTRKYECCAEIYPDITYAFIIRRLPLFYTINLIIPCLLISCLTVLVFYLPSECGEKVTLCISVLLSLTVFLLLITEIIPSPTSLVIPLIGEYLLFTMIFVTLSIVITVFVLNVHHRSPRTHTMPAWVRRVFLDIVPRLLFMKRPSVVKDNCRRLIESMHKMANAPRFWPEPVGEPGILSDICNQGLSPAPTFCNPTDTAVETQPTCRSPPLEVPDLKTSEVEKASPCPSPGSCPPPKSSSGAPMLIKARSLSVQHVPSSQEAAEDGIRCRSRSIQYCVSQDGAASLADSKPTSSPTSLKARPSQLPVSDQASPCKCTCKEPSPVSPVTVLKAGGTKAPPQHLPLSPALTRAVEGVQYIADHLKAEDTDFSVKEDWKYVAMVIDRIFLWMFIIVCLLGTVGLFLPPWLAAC
Sequence (P12390 whole entry): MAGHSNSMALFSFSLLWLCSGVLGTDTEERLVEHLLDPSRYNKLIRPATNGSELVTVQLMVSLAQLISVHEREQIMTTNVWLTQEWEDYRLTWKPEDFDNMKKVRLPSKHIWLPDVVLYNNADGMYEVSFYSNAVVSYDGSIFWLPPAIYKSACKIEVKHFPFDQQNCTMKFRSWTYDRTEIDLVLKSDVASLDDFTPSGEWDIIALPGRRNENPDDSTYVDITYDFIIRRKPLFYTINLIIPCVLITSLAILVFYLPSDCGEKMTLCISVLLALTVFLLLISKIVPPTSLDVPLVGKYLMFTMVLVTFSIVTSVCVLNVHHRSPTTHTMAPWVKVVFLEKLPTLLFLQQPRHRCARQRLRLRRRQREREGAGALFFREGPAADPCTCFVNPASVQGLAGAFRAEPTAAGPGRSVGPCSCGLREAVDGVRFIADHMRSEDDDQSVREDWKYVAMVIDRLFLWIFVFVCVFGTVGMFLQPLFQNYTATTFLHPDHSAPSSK
Quick rule for you: Ki under 0.8 µM gets condition met, anything else gets condition not met.

# input In the record for O=C(CCCN1C[C@@H]2C[C@H](C1)c1cccc(=O)n1C2)c1ccc(F)cc1 , is Ki less than 0.8 µM?
# output condition not met

# next molecule below
# input In the record for O=c1cccc2n1C[C@H]1C[C@@H]2CN(CCCCc2ccc(F)cc2)C1 , is Ki less than 0.8 µM?
# output condition not met

====

Field: pKi. Provide a value for each of the compounds that follow.
molecular target: Neuronal acetylcholine receptor subunit alpha-7 (Rattus norvegicus); assay: Displacement of [125I]alpha-bungarotoxin from alpha7 nicotinic acetylcholine receptor in rat brain cortex membrane homogenates
Sequence (Q05941 whole entry): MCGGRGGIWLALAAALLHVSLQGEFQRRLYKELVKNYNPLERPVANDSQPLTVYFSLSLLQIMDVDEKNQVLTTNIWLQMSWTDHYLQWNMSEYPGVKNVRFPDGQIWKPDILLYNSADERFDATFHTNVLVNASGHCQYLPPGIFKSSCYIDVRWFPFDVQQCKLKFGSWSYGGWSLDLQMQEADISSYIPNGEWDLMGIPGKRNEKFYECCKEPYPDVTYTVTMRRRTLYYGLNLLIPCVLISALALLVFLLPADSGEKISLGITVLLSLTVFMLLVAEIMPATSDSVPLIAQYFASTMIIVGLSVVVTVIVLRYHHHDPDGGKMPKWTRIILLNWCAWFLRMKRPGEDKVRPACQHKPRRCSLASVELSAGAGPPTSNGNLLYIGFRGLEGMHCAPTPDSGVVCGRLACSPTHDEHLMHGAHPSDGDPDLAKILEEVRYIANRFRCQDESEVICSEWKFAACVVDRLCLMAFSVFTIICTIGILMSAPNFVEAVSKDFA
pKi: −log10 of the molar value.

What the record says about CC(=O)CCCN1C[C@@H]2C[C@H](C1)c1cccc(=O)n1C2 : pKi is < 4.30

Hi team, please reply with pKi for each item in this list.
1. O=c1cccc2n1C[C@H]1C[C@@H]2CN(Cc2ccccc2)C1
2. NC(=O)CN1C[C@@H]2C[C@H](C1)c1cccc(=O)n1C2
3. Cc1ccc(CCN2C[C@@H]3C[C@H](C2)c2cccc(=O)n2C3)cc1
4. O=c1cccc2n1C[C@H]1C[C@@H]2CN(CCc2ccc(F)cc2)C1
5. O=c1cccc2n1C[C@H]1C[C@@H]2CN(CCCc2ccc(F)cc2)C1

# output
< 4.30
< 4.30
< 4.30
< 4.30
< 4.30

Hi team, please reply with pKi for each item in this list.
1. O=C(CN1C[C@@H]2C[C@H](C1)c1cccc(=O)n1C2)c1ccccc1
2. O=c1cccc2n1C[C@H]1C[C@@H]2CN(Cc2cccnc2)C1

# output
1. 5.65
2. < 4.00

Hi team, please reply with pKi for each item in this list.
1. O=c1cccc2n1C[C@H]1C[C@@H]2CN(CCc2ccccn2)C1
2. O=c1cccc2n1C[C@H]1C[C@@H]2CN(Cc2ccc(F)cc2)C1
3. O=c1cccc2n1C[C@H]1C[C@@H]2CN(CCCCc2ccc(F)cc2)C1
4. NC(=O)CCN1C[C@@H]2C[C@H](C1)c1cccc(=O)n1C2

# output
< 4.00
4.10
< 4.30
5.44

====

target: Neuronal acetylcholine receptor; alpha4/beta2 (Rattus norvegicus, UniProt P09483+P12390); test: Displacement of [3H]cytisine from alpha4beta2 nicotinic acetylcholine receptor in rat brain cortex membrane homogenates; type: cell membranes
value type: Ki (nM)
One number for each entry, in nM.

Answered examples (2):
What the record says about O=c1cccc2n1C[C@@H]1CNC[C@H]2C1 : Ki is 0.34

What the record says about O=c1cccc2n1C[C@H]1C[C@@H]2CN(CCCc2ccc(F)cc2)C1 : Ki is 611

As a next step, examine the compound that follows.
What the record says about O=c1cccc2n1C[C@H]1C[C@@H]2CN(CCc2ccccc2)C1 : Ki is 78

====

biological target: Neuronal acetylcholine receptor; alpha4/beta2 (Rattus norvegicus, UniProt P09483+P12390); experiment: Displacement of (+/-)-[3H]epibatidine from alpha4beta2 nicotinic acetylcholine receptor in rat brain cortex membrane homogenates; type: cell membranes
value type: log10 Ki (log10 of the value in nM)
Give log10 of Ki, with Ki taken in nM.

Answered examples (5):
log10 Ki on Neuronal acetylcholine receptor; alpha4/beta2 (Rattus norvegicus, UniProt P09483+P12390) for O=c1cccc2n1C[C@H]1C[C@@H]2CN(CCc2ccncc2)C1 is 0.86

log10 Ki on Neuronal acetylcholine receptor; alpha4/beta2 (Rattus norvegicus, UniProt P09483+P12390) for O=C(CCCN1C[C@@H]2C[C@H](C1)c1cccc(=O)n1C2)c1ccccc1 is 2.91

log10 Ki on Neuronal acetylcholine receptor; alpha4/beta2 (Rattus norvegicus, UniProt P09483+P12390) for NC(=O)CN1C[C@@H]2C[C@H](C1)c1cccc(=O)n1C2 is 3.86

log10 Ki on Neuronal acetylcholine receptor; alpha4/beta2 (Rattus norvegicus, UniProt P09483+P12390) for O=C(CCN1C[C@@H]2C[C@H](C1)c1cccc(=O)n1C2)c1ccc(F)cc1 is 0.72

log10 Ki on Neuronal acetylcholine receptor; alpha4/beta2 (Rattus norvegicus, UniProt P09483+P12390) for O=c1cccc2n1C[C@H]1C[C@@H]2CN(CCCCc2ccccc2)C1 is 3.59

Hi team, please reply with log10 Ki for each item in this list.
1. O=c1cccc2n1C[C@H]1C[C@@H]2CN(Cc2ccccc2)C1
2. O=c1cccc2n1C[C@H]1C[C@@H]2CN(Cc2ccc(F)cc2)C1
3. CCCCCN1C[C@@H]2C[C@H](C1)c1cccc(=O)n1C2

# output
[2.93, 2.52, 2.52]
